Attribution: PubChem BioAssay (NCATS)

Assay Procedure: S16 Schwann cell viability assay (CellTiter-Glo assay) (AID 624031); note: nearly all actives have a fitted effect of over 70% in size
Test Conditions: S16 rat Schwann cells viability, 24 h; series mostly up to 57.5 µM
Records with an inconclusive call do not appear. Activity calls are given as the source filed them. Calls come from the whole dose curve; as a rule, active = well fitted cell-killing curve with a large enough effect; inconclusive = small, poorly fitted or top-dose-only effect, or effect the other way; inactive = flat fitted curve, though single readings scatter.
Could you please pick one outcome from this set? true (1) (active), false (0) (inactive)

Recorded results for 4 molecules are shown here.
Molecule: CC(C)(C)CC(C)(C)c1ccc(OCCO)cc1
Class Label: false (0)
//
Molecule: OC[C@H]1O[C@@H]2O[C@H]3[C@H](O)[C@@H](O)[C@@H](O[C@H]4[C@H](O)[C@@H](O)[C@@H](O[C@H]5[C@H](O)[C@@H](O)[C@@H](O[C@H]6[C@H](O)[C@@H](O)[C@@H](O[C@H]7[C@H](O)[C@@H](O)[C@@H](O[C@H]1[C@H](O)[C@H]2O)O[C@@H]7CO)O[C@@H]6CO)O[C@@H]5CO)O[C@@H]4CO)O[C@@H]3CO
Class Label: false (0)
//
Molecule: Cc1ncc(C[n+]2csc(CCOP(=O)(O)O)c2C)c(N)n1
Class Label: false (0)
//
Molecule: OCl
Class Label: false (0)

q: Query: recorded result category for COc1ccc2c(c1)OC(C)(C)C(c1ccccc1)C2c1ccc(OCCN2CCCC2)cc1 (configuration not stated) in this test
a: true (1)

q: // return assay outcome for CCCCC
a: false (0)

* * *

Test system: P94_40
Assay Procedure: qHTS profiling for inhibitors of Plasmodium falciparum proliferation (AID 504749); note: nearly all actives have a fitted effect of over 60% in size
Test Conditions: P. falciparum in erythrocytes, SYBR Green DNA, 72 h; series mostly up to 28.7 µM
Method: NIH National Institute of Allergy and Infectious Diseases [NIAID] NIH Chemical Genomics Center [NCGC] […] Because mature erythrocytes lack DNA, only Plasmodium-derived DNA is detected. NCGC Assay Protocol Summary: The SYBR Green viability assay was adapted from a method described previously (Plouffe et al., 2008). […] The following morning, fluorescence intensity at 485(14) nm excitation and 535(25) nm emission wavelengths was measured on an EnVision (Perkin Elmer) plate reader. […]
Results filed as inconclusive are left out. Active and inactive are the calls of the source. Calls come from the whole dose curve; as a rule, active = well fitted inhibition curve with a large enough effect; inconclusive = small, poorly fitted or top-dose-only effect; inactive = flat fitted curve, though single readings scatter.
Valid outcomes are listed here; reply with one: active, inactive

Molecule Smiles: O=C(O)/C=C/C(=O)Nc1ccc(S(=O)(=O)Nc2nccs2)cc1
Target Desc: P94_40
Class Label: inactive
//
Molecule Smiles: NC(=S)N=Nc1ccc(NN=C(N)N)cc1
Target Desc: P94_40
Class Label: active
//
Molecule Smiles: OC[C@H]1O[C@@H]2O[C@H]3[C@H](O)[C@@H](O)[C@@H](O[C@H]4[C@H](O)[C@@H](O)[C@@H](O[C@H]5[C@H](O)[C@@H](O)[C@@H](O[C@H]6[C@H](O)[C@@H](O)[C@@H](O[C@H]7[C@H](O)[C@@H](O)[C@@H](O[C@H]1[C@H](O)[C@H]2O)O[C@@H]7CO)O[C@@H]6CO)O[C@@H]5CO)O[C@@H]4CO)O[C@@H]3CO
Target Desc: P94_40
Class Label: inactive

q: Give the logged outcome of this assay for the following compound: CCOC(C)OCC
a: inactive

* * *

Assay Procedure: Cell Viability - BJ (AID 421);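 note: cells exposed to compound for 40 hours at 37 °C before readout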
Test Conditions: BJ fibroblast viability, qHTS
Inconclusive results are not listed. The source made the active and inactive calls. The call rests on the fitted dose curve.
Your response should consist of one outcome taken from active, inactive

Molecule: OC[C@H]1O[C@@H]2O[C@H]3[C@H](O)[C@@H](O)[C@@H](O[C@H]4[C@H](O)[C@@H](O)[C@@H](O[C@H]5[C@H](O)[C@@H](O)[C@@H](O[C@H]6[C@H](O)[C@@H](O)[C@@H](O[C@H]7[C@H](O)[C@@H](O)[C@@H](O[C@H]1[C@H](O)[C@H]2O)O[C@@H]7CO)O[C@@H]6CO)O[C@@H]5CO)O[C@@H]4CO)O[C@@H]3CO
Class Label: inactive
//
Molecule: CO
Class Label: inactive
//
Molecule: CC/C=C\C/C=C\C/C=C\CCCCCCCC(=O)O
Class Label: inactive

q: Each molecule tested received a call. Report the one for O=c1n(CC2CO2)c(=O)n(CC2CO2)c(=O)n1CC1CO1 (configuration not stated) .
a: active

q: Could you please tell me the result logged for NCCN in this assay?
a: inactive

q: What was the test verdict on ClC(Cl)Cl ?
a: inactive

q: Recorded call for COC(=O)c1ccccc1O ?
a: inactive

q: For CC[C@H]1OC(=O)[C@H](C)[C@@H](O[C@H]2C[C@@](C)(OC)[C@@H](O)[C@H](C)O2)[C@H](C)[C@@H](O[C@@H]2O[C@H](C)C[C@H](N(C)C)[C@H]2O)[C@](C)(O)C[C@@H](C)CN(C)[C@H](C)[C@@H](O)[C@]1(C)O , which call appears in the assay record?
a: inactive

q: Identify the outcome logged in this assay for the molecule shown: C/C=C/C=C/C(=O)O
a: inactive

q: Answer briefly: the call reported for NC(N)=O in this assay.
a: inactive

q: // outcome(item) with item = OB(O)O
a: inactive

q: How was OCC(O)CO classified in this test?
a: inactive

q: For [O-][N+](=Nc1ccccc1)c1ccccc1 , which call appears in the assay record?
a: inactive

q: I'd appreciate the recorded outcome for Cc1ncc[nH]1 from this test.
a: inactive

q: Which outcome was assigned to Nc1ncnc2c1ncn2[C@H]1CC[C@@H](CO)O1 in this test?
a: inactive

q: Name the outcome recorded for C[C@H](CCC(=O)O)[C@H]1CC[C@H]2[C@@H]3CC[C@@H]4C[C@H](O)CC[C@]4(C)[C@H]3C[C@H](O)[C@]12C in the assay.
a: inactive
